test system: UO-31; test: NCI tumour cell line growth inhibition, 48 h
Calls of active or inactive are those of the source. No stated cut-off is given here; in the data, active = GI50 up to about 1.1 µM and inactive = higher.
Hi there, use one of these labels in your reply, thanks! active, inactive

• O=c1c(-c2ccc(O)cc2)coc2cc(O)cc(O)c12 [GENISTEIN] = inactive
• CSc1csc(-c2ccc(-c3ccc(-c4cc(SC)cs4)s3)s2)c1 = inactive

// outcome(item) with item = "CCc1cccc(C)c1N1C(=O)C(=O)C(c2nc3ccccc3o2)C(=O)C1=O" inactive

// return assay outcome for "CCCC(=O)C1=C(O)C(Cc2c(O)c(C)c(O)c(C(=O)CCC)c2O)=C(O)C(C)(C)C1=O" inactive
